Measurement protocol: Metabolic stability in mouse liver microsomes assessed as half life preincubated for 5 mins followed by NADPH addition and measured up to 60 mins by LC-MS/MS analysis
Format: ADME, Microsome
Assay setup: time 65 min
Property measured: half-life (min)
The figure you give is taken to be in min; do not add the unit.

Query block: Please report the recorded half-life for CCn1c(=O)c(C(=O)Nc2nnc(-c3nccs3)s2)c(O)c2ccccc21 .
Result block: 35.6

* * *

Measured MIC accompanies every entry in the list below.
System: Staphylococcus aureus
Measurement protocol: Antibacterial activity against methicillin-resistant Staphylococcus aureus clinical isolate 15-6 assessed as inhibition of bacterial growth incubated for 18 to 24 hrs by broth microdilution method
Format: functional
Assay setup: time 18-24 hrs
The figure you give is taken to be in µg/mL; do not add the unit.

Compound | Assayed target | MIC (µg/mL)
CCCCc1nnc(NC(=O)c2c(O)c3ccccc3n(CC)c2=O)s1 | Staphylococcus aureus | 2
CCn1c(=O)c(C(=O)Nc2nnc(-c3ccccn3)s2)c(O)c2ccccc21 | Staphylococcus aureus | 0.5
CCn1c(=O)c(C(=O)Nc2nnc(-c3cscn3)s2)c(O)c2ccccc21 | Staphylococcus aureus | 4
CCc1nnc(NC(=O)c2c(O)c3ccccc3n(C)c2=O)s1 | Staphylococcus aureus | 4
CCc1nnc(NC(=O)c2c(O)c3ccccc3n(CC)c2=O)s1 | Staphylococcus aureus | 2

Query block: Please report the recorded MIC for CCCc1nnc(NC(=O)c2c(O)c3ccccc3n(CC)c2=O)s1 .
Result block: 2

Query block: Please report the recorded MIC for CCCCCc1nnc(NC(=O)c2c(O)c3ccccc3n(CC)c2=O)s1 .
Result block: 0.5

Query block: Please report the recorded MIC for CCn1c(=O)c(C(=O)Nc2nnc(C)s2)c(O)c2ccccc21 .
Result block: 2

Query block: Please report the recorded MIC for CCn1c(=O)c(C(=O)Nc2nnc(-c3cccnc3)s2)c(O)c2ccccc21 .
Result block: 0.5

Query block: Please report the recorded MIC for CCn1c(=O)c(C(=O)Nc2nnc(-c3nccs3)s2)c(O)c2ccccc21 .
Result block: 0.5

Query block: Please report the recorded MIC for CCn1c(=O)c(C(=O)Nc2nnc(-c3ccccc3)s2)c(O)c2ccccc21 .
Result block: 0.5

* * *

Measurement protocol: Metabolic stability in mouse plasma assessed as half life measured upto 120 mins by LC-MS/MS analysis
Assay type: ADME, cell-free
Property measured: half-life

Query block: Please report the recorded half-life for CCn1c(=O)c(C(=O)Nc2nnc(-c3nccs3)s2)c(O)c2ccccc21 .
Result block: 8.39 h

* * *

Tested on: Staphylococcus epidermidis
Measurement protocol: Antibacterial activity against methicillin-sensitive Staphylococcus epidermidis clinical isolate 15-3 assessed as inhibition of bacterial growth incubated for 18 to 24 hrs by broth microdilution method
Format: functional
Assay setup: time 18-24 hrs
Property measured: MIC (µg/mL)
The figure you give is taken to be in µg/mL; do not add the unit.

Known MIC results, listed for orientation:
Compound | MIC [µg/mL]
CCCCc1nnc(NC(=O)c2c(O)c3ccccc3n(CC)c2=O)s1 | 2
CCn1c(=O)c(C(=O)Nc2nnc(-c3ccccc3)s2)c(O)c2ccccc21 | 1
CCc1nnc(NC(=O)c2c(O)c3ccccc3n(C)c2=O)s1 | 4
CCCc1nnc(NC(=O)c2c(O)c3ccccc3n(CC)c2=O)s1 | 2

Query block: Please report the recorded MIC for CCn1c(=O)c(C(=O)Nc2nnc(-c3ccccn3)s2)c(O)c2ccccc21 .
Result block: 1

Query block: Please report the recorded MIC for CCn1c(=O)c(C(=O)Nc2nnc(-c3cccnc3)s2)c(O)c2ccccc21 .
Result block: 2

Query block: Please report the recorded MIC for CCn1c(=O)c(C(=O)Nc2nnc(-c3nccs3)s2)c(O)c2ccccc21 .
Result block: 0.5

Query block: Please report the recorded MIC for CCn1c(=O)c(C(=O)Nc2nnc(-c3cscn3)s2)c(O)c2ccccc21 .
Result block: 8

Query block: Please report the recorded MIC for CCCCCc1nnc(NC(=O)c2c(O)c3ccccc3n(CC)c2=O)s1 .
Result block: 1

Query block: Please report the recorded MIC for CCc1nnc(NC(=O)c2c(O)c3ccccc3n(CC)c2=O)s1 .
Result block: 2

* * *

Measurement protocol: Protein binding in mouse plasma at 5 uM incubated for 5 hrs by equilibrium dialysis based LC-MS/MS analysis
Type: ADME, cell-free
Assay setup: read-out: PPB
Property measured: fraction unbound at 5 h, 5 µM
No unit in the answer, only the number.

Query block: Please report the recorded fraction unbound at 5 h, 5 µM for CCn1c(=O)c(C(=O)Nc2nnc(-c3nccs3)s2)c(O)c2ccccc21 .
Result block: 0.001

* * *

Measured selectivity ratio accompanies every entry in the list below.
Measurement protocol: Selectivity index, ratio of IC50 for human HUVEC cells to MIC for methicillin-resistant Staphylococcus aureus
Type: toxicity
No unit in the answer, only the number.

Query block: Please report the recorded selectivity ratio for CCn1c(=O)c(C(=O)Nc2nnc(-c3ccccn3)s2)c(O)c2ccccc21 .
Result block: 26.5

Query block: Please report the recorded selectivity ratio for CCCCCc1nnc(NC(=O)c2c(O)c3ccccc3n(CC)c2=O)s1 .
Result block: 41.9

Query block: Please report the recorded selectivity ratio for CCn1c(=O)c(C(=O)Nc2nnc(-c3nccs3)s2)c(O)c2ccccc21 .
Result block: 77.6

* * *

Measurement protocol: AUClast in Kunming mouse at 10 mg/kg, po measured upto 72 hrs by HPLC analysis
Assay type: ADME, organism-based
Design: route oral, dose 10 mg/kg, time <=72
Assay setup: in vivo
Property measured: AUC(0-t) at 72 h (ng·h/mL)
The figure you give is taken to be in ng·h/mL; do not add the unit.

Query block: Please report the recorded AUC(0-t) at 72 h for CCn1c(=O)c(C(=O)Nc2nnc(-c3nccs3)s2)c(O)c2ccccc21 .
Result block: 2540

* * *

Measurement protocol: Inhibition of Staphylococcus aureus Gyrase B using linear pBR322 DNA as substrate incubated for 30 mins in presence of ATP by ADP-Glo assay
Measured log10(IC50) accompanies every entry in the list below.
Could you please treat all values as log10 of IC50 in nM?

Known log10(IC50) results, listed for orientation:
Compound | log10(IC50)
CCOc1ccc(-c2nnc(NC(=O)c3c(O)c4ccccc4n(CC)c3=O)s2)cc1 | 3.36
CCOc1cccc(-c2nnc(NC(=O)c3c(O)c4ccccc4n(CC)c3=O)s2)c1 | 3.23

Query block: Please report the recorded log10(IC50) for CCn1c(=O)c(C(=O)Nc2nnc(-c3ccc(F)cc3)s2)c(O)c2ccccc21 .
Result block: 3.36

Query block: Please report the recorded log10(IC50) for CCn1c(=O)c(C(=O)Nc2nnc(-c3ccccn3)s2)c(O)c2ccccc21 .
Result block: 2.62

Query block: Please report the recorded log10(IC50) for CCn1c(=O)c(C(=O)Nc2nnc(-c3ccc([N+](=O)[O-])cc3)s2)c(O)c2ccccc21 .
Result block: 3.21

Query block: Please report the recorded log10(IC50) for CCn1c(=O)c(C(=O)Nc2nnc(-c3ccccc3F)s2)c(O)c2ccccc21 .
Result block: 3.00

Query block: Please report the recorded log10(IC50) for CCCCCCc1nnc(NC(=O)c2c(O)c3ccccc3n(CC)c2=O)s1 .
Result block: 2.54

Query block: Please report the recorded log10(IC50) for CCn1c(=O)c(C(=O)Nc2nnc(-c3ccc(C)cc3)s2)c(O)c2ccccc21 .
Result block: 2.81

Query block: Please report the recorded log10(IC50) for CCc1nnc(NC(=O)c2c(O)c3ccccc3n(C)c2=O)s1 .
Result block: 2.00

Query block: Please report the recorded log10(IC50) for CCCCc1nnc(NC(=O)c2c(O)c3ccccc3n(CC)c2=O)s1 .
Result block: 3.00

Query block: Please report the recorded log10(IC50) for CCn1c(=O)c(C(=O)Nc2nnc(C3CCCCC3)s2)c(O)c2ccccc21 .
Result block: 2.74

Query block: Please report the recorded log10(IC50) for CCn1c(=O)c(C(=O)Nc2nnc(C)s2)c(O)c2ccccc21 .
Result block: 2.38

Query block: Please report the recorded log10(IC50) for CCn1c(=O)c(C(=O)Nc2nnc(-c3cccc(OC)c3)s2)c(O)c2ccccc21 .
Result block: 3.34

Query block: Please report the recorded log10(IC50) for CCn1c(=O)c(C(=O)Nc2nnc(-c3ccccc3C)s2)c(O)c2ccccc21 .
Result block: 3.50

Query block: Please report the recorded log10(IC50) for CCn1c(=O)c(C(=O)Nc2nnc(-c3ccc(OC)cc3)s2)c(O)c2ccccc21 .
Result block: 3.06

Query block: Please report the recorded log10(IC50) for CCc1nnc(NC(=O)c2c(O)c3ccccc3n(CC)c2=O)s1 .
Result block: 2.65

* * *

System: Staphylococcus epidermidis
Measurement protocol: Antibacterial activity against methicillin-sensitive Staphylococcus epidermidis clinical isolate 15-4 assessed as inhibition of bacterial growth incubated for 18 to 24 hrs by broth microdilution method
Format: functional
Assay setup: time 18-24 hrs
Measured MIC accompanies every entry in the list below.
The figure you give is taken to be in µg/mL; do not add the unit.

Compound | Units label | MIC
CCc1nnc(NC(=O)c2c(O)c3ccccc3n(C)c2=O)s1 | µg/mL | 2
CCn1c(=O)c(C(=O)Nc2nnc(-c3ccccn3)s2)c(O)c2ccccc21 | µg/mL | 1
CCc1nnc(NC(=O)c2c(O)c3ccccc3n(CC)c2=O)s1 | µg/mL | 2
CCCCCc1nnc(NC(=O)c2c(O)c3ccccc3n(CC)c2=O)s1 | µg/mL | 1
CCn1c(=O)c(C(=O)Nc2nnc(-c3cscn3)s2)c(O)c2ccccc21 | µg/mL | 4

Query block: Please report the recorded MIC for CCn1c(=O)c(C(=O)Nc2nnc(-c3ccccc3)s2)c(O)c2ccccc21 .
Result block: 1

Query block: Please report the recorded MIC for CCn1c(=O)c(C(=O)Nc2nnc(-c3nccs3)s2)c(O)c2ccccc21 .
Result block: 0.5

Query block: Please report the recorded MIC for CCCCc1nnc(NC(=O)c2c(O)c3ccccc3n(CC)c2=O)s1 .
Result block: 2

Query block: Please report the recorded MIC for CCn1c(=O)c(C(=O)Nc2nnc(-c3cccnc3)s2)c(O)c2ccccc21 .
Result block: 1

Query block: Please report the recorded MIC for CCCc1nnc(NC(=O)c2c(O)c3ccccc3n(CC)c2=O)s1 .
Result block: 2
